system: HT29; experiment: cells; type: cell-based; conditions: Homo sapiens, HT-29; HT29, 48 hours exposure, SRB; 50% net cell killing (cytotoxic effect); read-out: LC50 (the source's name)
# CC50 listing for each entry below
Write down the numeric answer in nM and omit the unit.

Here's what some known entries look like.
{"COMPOUND": "COC1=CCC(C(C)/C=C(C)/C=C/C=C\\C(=O)NC(C(=O)N/C=C\\CC(C/C=C(\\C)Cl)OC(N)=O)C(C)C)OC1=O (stereo not shown)", "METRIC": "CC50", "MEASURED": 4.9}
{"COMPOUND": "COC1=CC[C@@H]([C@@H](C)/C=C(C)/C=C/C=C/C(=O)N[C@H](C(=O)N/C=C\\C[C@H](C/C=C(\\C)Cl)O[Si](C)(C)C(C)(C)C)C(C)(C)C)OC1=O", "METRIC": "CC50", "MEASURED": 10000}
{"COMPOUND": "COC1=CC[C@@H]([C@@H](C)/C=C(C)/C=C\\C=C/C(=O)N[C@H](C(N)=O)C(C)(C)C)OC1=O", "METRIC": "CC50", "MEASURED": 816}

The measured CC50 associated with COC1=CC[C@@H]([C@@H](C)/C=C(C)/C=C\C=C/C(=O)N[C@@H](Cc2ccccc2)C(=O)N/C=C\C[C@H](C/C=C(\C)Cl)O[Si](C)(C)C(C)(C)C)OC1=O [Compound 29d] reads 928

The measured CC50 associated with C/C(Cl)=C\C[C@H](O)C/C=C\NC(=O)[C@@H](NC(=O)\C=C/C=C\C(C)=C\[C@H](C)[C@@H]1CC=CC(=O)O1)C(C)(C)C [Compound 30f] reads 1050

The measured CC50 associated with COC1=CC[C@@H]([C@@H](C)/C=C(C)/C=C\C=C\C(=O)N[C@H](C(=O)N/C=C\C[C@@H](O)C/C=C(\C)Cl)C(C)(C)C)OC1=O [Compound 30e] reads 44.4

* * *

tested on: HT29; assay: cells; format: cell-based; settings: Homo sapiens, HT-29; HT29, 48 hours exposure, SRB; concentration that produces 50% growth inhibition; read-out: GI50
METRIC: GI50 (nM)
Write down the numeric answer in nM and omit the unit.

Here's what some known entries look like.
{"COMPOUND": "COC1=CC[C@@H]([C@@H](C)/C=C(C)/C=C\\C=C/C(=O)N[C@H](C(=O)N/C=C\\C[C@H](C/C=C(\\C)Cl)OC(N)=O)C(C)C)OC1=O", "TESTED_SYSTEM": "HT29", "MEASURED": 0.0439}
{"COMPOUND": "COC1=CC[C@@H]([C@@H](C)/C=C(C)/C=C\\C=C/C(=O)N[C@H](C(=O)N/C=C\\C[C@H](C/C=C(\\C)Cl)O[Si](C)(C)C(C)(C)C)C(C)(C)C)OC1=O [Compound 29a]", "TESTED_SYSTEM": "HT29", "MEASURED": 605}
{"COMPOUND": "COC1=CC[C@@H]([C@@H](C)/C=C(C)/C=C\\C=C/C(=O)N[C@@H](Cc2ccccc2)C(=O)N/C=C\\C[C@H](C/C=C(\\C)Cl)O[Si](C)(C)C(C)(C)C)OC1=O [Compound 29d]", "TESTED_SYSTEM": "HT29", "MEASURED": 829}

The measured GI50 associated with COC1=CC[C@@H]([C@@H](C)/C=C(C)/C=C\C=C/C(=O)N[C@H](C(=O)N/C=C\C[C@@H](C/C=C(\C)Cl)OC(N)=O)C(C)C)OC1=O [(21S)-5] reads 2.53

The measured GI50 associated with COC1=CCC(C(C)/C=C(C)/C=C/C=C\C(=O)NC(C(=O)N/C=C\CC(C/C=C(\C)Cl)OC(N)=O)C(C)C)OC1=O (centres unmarked) reads 0.591

// provenance: patent US8324406B2
